Assay: binders of probe aHhip on microarray, primary screen, stem cell growth factor project, biochemical, small-molecule microarray, fluorescence 635/667 (AID 1087);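 also: score merges spot fluorescence at 667nm with spot signal to noise ratio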
Conditions: higher = more signal
Parameter composite z-score: see the listing below.
measureName: composite z-score

{"columns": ["inputSmiles", "measureName", "recordedMeasurement"],
 "data": [
  ["CCC[C@@H]1[C@@H](Sc2ccccc2)[C@@H](C(=O)O)[C@H](c2ccc(C)cc2)N1S(=O)(=O)c1ccc(C)cc1", "composite z-score", -0.0618],
  ["COc1ccc([Si](C)(C)[C@H]2[C@H](CCn3cc([C@H](O)c4ccccc4)nn3)O[C@@]3(C(=O)N(c4ccccc4)c4ccccc43)[C@@H]2C)cc1", "composite z-score", -0.236],
  ["COc1ccc(CCNC(=O)[C@@]2(C)c3ccccc3C(=O)N(Cc3cc(C(F)(F)F)cc(C(F)(F)F)c3)[C@H]2c2ccc(CO)cc2)cc1", "composite z-score", 1.69]
]}

====

Experiment: binders of probe aFGF2 on microarray, primary screen, stem cell growth factor project, biochemical, small-molecule microarray, fluorescence 635/667 (AID 1067);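 also: measures binding of biotinylated aFGF2 protein to printed compounds on slides; z-score merges feature fluorescence and signal-to-noise across triplicate slides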
Details: higher = more signal

{"columns": ["compound", "composite z-score"],
 "data": [
  ["Cc1ccc(F)cc1S(=O)(=O)N[C@@H]1CCN(Cc2ccc3c(c2)OCO3)C1", -0.135],
  ["CC(C)CNC(=O)[C@@H]1c2ccccc2C(=O)N(CC23CC4CC(CC(C4)C2)C3)[C@H]1c1ccc(CO)cc1", -0.0056],
  ["COCCOC(=O)N1C(=O)[C@@]2(c3cc(C#Cc4ccc(OC)cc4)ccc31)[C@H](C(=O)N1CCCCCCC1)[C@H]1C(=O)O[C@H](c3ccccc3)[C@H](c3ccccc3)N1[C@@H]2c1ccccc1OCCO", 0.685],
  ["COc1cc(OC)c(C(O)C2C=CC3C(=O)N(c4ccccc4)C(=O)C3N2Nc2ccccc2F)cc1Br (stereo unspecified)", 0.0619],
  ["COc1ccccc1CN1C(=O)c2ccccc2[C@](Cc2ccccc2I)(C(=O)NCCCN(C)C)[C@@H]1c1ccc(CO)cc1", -0.116],
  ["C=CCOC(=O)[C@@H]1[C@H]2C(=O)O[C@H](c3ccccc3)[C@H](c3ccccc3)N2[C@H](c2ccc(OCCOC(=O)[C@H]3C[C@H]4C(=O)NCC(=O)N4[C@H]3c3ccc(O)cc3)cc2)[C@@]12C(=O)Nc1ccc(I)cc12", -0.0834]
]}

====

Parameter z-score: see the listing below.
Target: Luciferin 4-monooxygenase (Photinus pyralis) (UniProt P08659)
Sequence (P08659 whole entry, looked up): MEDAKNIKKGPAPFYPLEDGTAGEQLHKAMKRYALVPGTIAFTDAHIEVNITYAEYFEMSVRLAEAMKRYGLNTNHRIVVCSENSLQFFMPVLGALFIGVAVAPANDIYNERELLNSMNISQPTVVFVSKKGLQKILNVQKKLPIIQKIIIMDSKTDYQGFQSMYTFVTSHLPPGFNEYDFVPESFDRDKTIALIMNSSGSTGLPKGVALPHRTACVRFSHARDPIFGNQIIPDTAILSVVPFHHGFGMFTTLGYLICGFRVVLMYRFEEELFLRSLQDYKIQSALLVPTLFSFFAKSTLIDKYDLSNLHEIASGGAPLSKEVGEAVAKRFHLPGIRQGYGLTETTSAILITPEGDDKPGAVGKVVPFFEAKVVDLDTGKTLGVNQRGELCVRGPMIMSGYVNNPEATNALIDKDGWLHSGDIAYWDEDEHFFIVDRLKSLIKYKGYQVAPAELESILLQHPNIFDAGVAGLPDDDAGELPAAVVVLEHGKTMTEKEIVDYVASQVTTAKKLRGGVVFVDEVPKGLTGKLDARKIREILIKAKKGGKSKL
Experiment: firefly luciferase enzyme inhibitors, primary screen, biochemical, luminescence, purified enzyme, 2006 set (AID 1141);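 also: cell-free assay with purified firefly luciferase at 100 ng per well in PBS; test concentration not given here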
Details: SteadyGlo luminescence, 30 min, higher = more signal, called active from +8 up or from −8 down
The source made the active and inactive calls.

{"columns": ["compound", "z-score"],
 "data": [
  ["CC(C)C[C@@H]1NC(=O)[C@H]2C[C@@H](C(=O)NCCCCCNC(=O)CS)[C@@H](c3ccc(O)cc3)N2C1=O", "-1.76 (inactive)"],
  ["[N-]=[N+]=NCc1ccccc1[C@@H]1OC(c2ccc(OCCCO)cc2)=N[C@]1(Cc1ccccc1)C(=O)NCc1ccccc1", "0.294 (inactive)"],
  ["CN(C)C(=O)[C@]1(Cc2ccccc2CN=[N+]=[N-])N=C(c2ccc(OCCCO)cc2)O[C@@H]1c1ccccc1N=[N+]=[N-]", "-9.41 (active)"],
  ["CC(C)C(=C=CC[C@@H](O)c1cccc(OCCO)c1)CCO", "-0.852 (inactive)"],
  ["C=CCOC(=O)[C@H]1[C@@H]2C(=O)O[C@@H](c3ccccc3)[C@@H](c3ccccc3)N2[C@@H](c2ccc(OCCOC(=O)[C@@H]3C[C@@H]4C(=O)N[C@@H](CC(C)C)C(=O)N4[C@@H]3c3ccc(O)cc3)cc2)[C@]12C(=O)Nc1ccc(I)cc12", "-2.13 (inactive)"],
  ["CCCC[C@H]1OB(O)C[C@H]2C1=C(C)C[C@H]1C(=O)C=CC(=O)[C@H]12", "-2.94 (inactive)"],
  ["C#CCN(C/C=C/c1ccccc1)[C@H](CO[Si](C)(C)C(C)(C)C)c1ccccc1", "0.43 (inactive)"],
  ["CC(c1ccccc1)C(O)C1C=CC2C(=O)N(c3ccccc3)C(=O)C2N1Nc1ccc(C#N)cc1 (stereo unspecified)", "-0.424 (inactive)"],
  ["CO[C@H]1O[C@H](CO)[C@@H](OC(=O)Nc2ccc3c(c2)OCO3)[C@@H]2OC(=O)[C@@H](Cc3ccccc3)C/C=C/C[C@H](Cc3ccccc3)C(=O)O[C@@H]12", "-1.01 (inactive)"],
  ["NCCCC[C@@H]1NC(=O)[C@H]2C[C@@H](C(=O)O)[C@@H](c3cccc(OCCO)c3)N2C1=O", "-1.08 (inactive)"],
  ["COCCCNC(=O)[C@@]1(Sc2ccc(C)cc2)CC(=O)N(C2CCCCC2)[C@@H]1c1ccc(CO)cc1I", "0.235 (inactive)"],
  ["NCCCC[C@@H]1NC(=O)[C@H]2C[C@@H](C(=O)NCc3ccc(F)cc3)[C@@H](c3cccc(OCCO)c3)N2C1=O", "-0.434 (inactive)"],
  ["O=C1N(CCS(=O)(=O)c2ccccc2)c2ccccc2[C@@H]2OC(c3ccc(OCCCO)cc3)=N[C@]12CCS(=O)(=O)c1ccccc1", "-3.78 (inactive)"],
  ["C=CC[C@]1(C(=O)NCCCOC)N=C(c2ccc(OCCCO)cc2)O[C@H]1c1ccccc1", "0.436 (inactive)"],
  ["C=C(COC)/C(=C/C[C@@H](OC(C)=O)c1ccccc1OCCO)c1cc(C(=O)OC)ccc1OC", "-1.47 (inactive)"],
  ["Cc1ccc(S[C@]2(C(=O)NCCCN(C)C)CC(=O)N(Cc3ccccc3Cl)[C@@H]2c2ccc(CO)cc2I)cc1", "-0.543 (inactive)"]
]}
